- System: MCF7
- ASSAY DETAILS: Proteolysis targeting chimera activity in human MCF7 cells assessed as induction of E3 ubiquitin ligase-mediated ERalpha level after 24 hrs by in-cell Western assay relative to control
- Type: cell-based
- Design: concentration or dose not given beside the values
Measured Activity, listed per entry for reference.

{"columns": ["COMPOUND", "TEST TARGET", "Activity (%)"],
 "data": [
  ["O=C(NCCCCOc1ccc(C(=C2C3CC4CC(C3)CC2C4)c2ccc(O)cc2)cc1)[C@H]1CC[C@H](C(F)(F)F)CC1", "MCF7", 31],
  ["O=C(NCCCOc1ccc(C(=C2C3CC4CC(C3)CC2C4)c2ccc(O)cc2)cc1)C12CC3CC(CC(C3)C1)C2", "MCF7", 42],
  ["C[C@]12CC[C@@H]3c4ccc(O)cc4C[C@@H](CCCCCCCCC[S+]([O-])CCCC(F)(F)C(F)(F)F)[C@H]3[C@@H]1CC[C@@H]2O (stereo partly drawn)", "MCF7", 9]
]}

* * *

- TEST TARGET: Estrogen receptor (Homo sapiens)
- ASSAY DETAILS: Displacement of [3H]estradiol from human full length ERalpha after 18 to 24 hrs by scintillation counting method

{"columns": ["COMPOUND", "RBA"],
 "data": [
  ["C[C@]12CC[C@@H]3c4ccc(O)cc4C[C@@H](CCCCCCCCC[S+]([O-])CCCC(F)(F)C(F)(F)F)[C@H]3[C@@H]1CC[C@@H]2O (some centres undefined)", "61%"],
  ["CC(C)(C)OC(=O)N[C@@H](Cc1c[nH]c2ccccc12)C(=O)NCCCCOc1ccc(C(=C2C3CC4CC(C3)CC2C4)c2ccc(O)cc2)cc1", "20%"],
  ["O=C(NCCCCOc1ccc(C(=C2C3CC4CC(C3)CC2C4)c2ccc(O)cc2)cc1)C1CCCCC1", "28%"],
  ["O=C(NCCCCOc1ccc(C(=C2C3CC4CC(C3)CC2C4)c2ccc(O)cc2)cc1)C1CCCCCC1", "30%"]
]}

* * *

- TEST TARGET: Estrogen receptor (Homo sapiens)
- Sequence (whole entry): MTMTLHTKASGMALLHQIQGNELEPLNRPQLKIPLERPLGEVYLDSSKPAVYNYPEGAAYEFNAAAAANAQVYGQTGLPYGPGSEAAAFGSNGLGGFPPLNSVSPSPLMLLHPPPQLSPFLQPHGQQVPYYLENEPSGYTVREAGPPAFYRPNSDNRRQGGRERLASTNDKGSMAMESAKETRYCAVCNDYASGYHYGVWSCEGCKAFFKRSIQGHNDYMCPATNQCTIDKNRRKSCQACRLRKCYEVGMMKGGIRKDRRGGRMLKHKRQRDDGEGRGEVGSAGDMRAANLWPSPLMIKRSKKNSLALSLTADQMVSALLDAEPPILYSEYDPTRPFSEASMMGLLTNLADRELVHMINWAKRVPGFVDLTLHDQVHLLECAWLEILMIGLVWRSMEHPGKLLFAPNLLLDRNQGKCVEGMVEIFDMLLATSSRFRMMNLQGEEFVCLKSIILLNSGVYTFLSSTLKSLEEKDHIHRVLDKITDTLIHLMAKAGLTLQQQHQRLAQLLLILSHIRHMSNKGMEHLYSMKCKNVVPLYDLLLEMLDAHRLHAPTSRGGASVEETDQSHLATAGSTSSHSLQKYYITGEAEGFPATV
- ASSAY DETAILS: Displacement of [3H]estradiol from human full length ERalpha after 18 to 24 hrs by scintillation counting method
Measured RBA, listed per entry for reference.

{"columns": ["MOLECULAR STRING", "RBA, %"],
 "data": [
  ["CC12CC3CC(C)(C1)CC(C(=O)NCCCCOc1ccc(C(=C4C5CC6CC(C5)CC4C6)c4ccc(O)cc4)cc1)(C3)C2", 6],
  ["O=C(NCCCCOc1ccc(C(=C2C3CC4CC(C3)CC2C4)c2ccc(O)cc2)cc1)C1CCC1", 70],
  ["O=C(NCCCCOc1ccc(C(=C2C3CC4CC(C3)CC2C4)c2ccc(O)cc2)cc1)C12CC3CC(CC(C3)C1)C2", 11],
  ["O=C(NCCCOc1ccc(C(=C2C3CC4CC(C3)CC2C4)c2ccc(O)cc2)cc1)C12CC3CC(CC(C3)C1)C2", 26],
  ["O=C(NCCCCOc1ccc(C(=C2C3CC4CC(C3)CC2C4)c2ccc(O)cc2)cc1)C1CCC(F)(F)CC1", 30]
]}

Entry source: ChEMBL document CHEMBL4196158
